Assay: acute toxicity in mice (LD50)
Settings: mouse, in vivo, ip, intraperitoneal, hydrochloride, read-out: intraperitoneal LD50
Reported Property: LD50 (mg/kg)
# output: bare number, implied unit mg/kg

Field request: LD50 | item: CS(=O)(=O)Nc1ccc(C(O)CNCCOc2ccccc2)cc1.Cl (stereo not shown)
273

----------
Test: acute toxicity in rats (oral LD50)
Details: rat, in vivo, female rat, hydrochloride
Reported Property: LD50 (mg/kg)
Please state the figure in mg/kg; there is no need to write the unit.

Recorded LD50 of CS(=O)(=O)Nc1ccc(C(O)CNCCOc2ccccc2)cc1.Cl (stereo not shown) , please.
1950

----------
Test: acute toxicity in rats (oral LD50)
Conditions: rat, in vivo, male rat, hydrochloride
Reported Property: LD50 (mg/kg)
Hi! Could you send only the number? It should be in mg/kg, unit omitted.

Please report the recorded LD50 for CS(=O)(=O)Nc1ccc(C(O)CNCCOc2ccccc2)cc1.Cl (stereo not shown) .
3550
